Here the recorded Fortebio binding to PD-1-Fc Response Units (Response Units) is given for each entry.
Molecular target: PD-1-Fc (Homo sapiens)
Sequence (chain, as listed by the source limits assumed): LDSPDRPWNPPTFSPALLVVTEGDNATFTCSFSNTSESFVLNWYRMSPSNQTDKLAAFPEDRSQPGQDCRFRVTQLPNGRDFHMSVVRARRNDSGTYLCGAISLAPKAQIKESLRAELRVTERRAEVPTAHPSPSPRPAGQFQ
Assay: ForteBio, PD-1-Fc

Binder	Assay Result
variant PD-L2 IgV-Fc H15Q, N24S, T47A, Q72H, R76G, V89D (Fc fusion) LFTVTVPKELYIIEQGSNVTLECSFDTGSHVNLGAITASLQKVENDASPHRERATLLEEQLPLGKASFHIPHVQVGDEGQYQCIIIYGDAWDYKYLTLKVKA	0.4

Query string: Can you share its Fortebio binding to PD-1-Fc Response Units (Response Units)? I mean this binder: variant PD-L2 IgV-Fc H15Q, S67L, R76G, I85F (Fc fusion) LFTVTVPKELYIIEQGSNVTLECNFDTGSHVNLGAITASLQKVENDTSPHRERATLLEEQLPLGKALFHIPQVQVGDEGQYQCIFIYGVAWDYKYLTLKVKA
Result string: 0.025
